Assay: chemical recovery from spiked human plasma; higher = better extraction;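 further: plasma spiked with over 400 chemicals, quantified by LC-HRMS and GC-HRMS via internal standard calibration against matrix-matched unspiked plasma extracts plus spike mix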
Conditions: pooled human plasma; extraction method: PES+SPE (3 d PDMS equilibration then HLB SPE)
measured_endpoint: chemical recovery (%)
The reply should contain only the number, in %.

These recorded examples may help you get a feel for the data.
{"molecule": "CCOc1nc2cccc(C(=O)O)c2n1Cc1ccc(-c2ccccc2-c2nnn[nH]2)cc1 [Candesartan]", "readout_number": 41.3}
{"molecule": "CCOC1Oc2ccc(OS(C)(=O)=O)cc2C1(C)C (stereo not given) [Ethofumesate]", "readout_number": 43.9}
{"molecule": "CNC(=O)O/N=C(\\C)SC [Methomyl]", "readout_number": 50.6}

Exercise: # get_value(readout='chemical recovery', item= Oc1ccc2c(c1)[nH]c1ccccc12 [2-Hydroxycarbazole] )
Solution: 52.1

Exercise: # get_value(readout='chemical recovery', item= CN1CCN(C2=Nc3cc(Cl)ccc3Nc3ccccc32)CC1 [Clozapine] )
Solution: 0.74
